- System: c-Src
- assay_notes: phosphorylation enrichment, bacterial display (enrichment ratio); higher = better substrate or ligand; peptides without Tyr show the background;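 also: 11-residue human phosphosite peptides and single-mutation variants displayed on the E. coli surface, counted by deep sequencing, each peptide's frequency after selection divided by its frequency in the unselected input library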;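 also: frequency after pTyr selection over input frequency; kinase dosed for 20-30% of maximal phosphorylation in three min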
Catalogue of phosphorylation enrichment readings, one per entry.

Sure, the documented phosphorylation enrichment for ELANYYKLHHI [AK7_Y391] is 0.762

----------
- Tested on: Fer (mouse)
- assay_notes: phosphorylation enrichment, bacterial display (enrichment ratio); higher = better substrate or ligand; peptides without Tyr show the background
Binned phosphorylation enrichment; ranges: lower range (below 0.4), middle range (0.4 to below 0.5), upper range (0.5 or more)

Sample answers from the record:
ordered_residues="NLRQQYNSPQE [UMPS_Y432_G429R]" category_label="lower range"
ordered_residues="DPHQQYYIAMD [TBX15_Y159]" category_label="upper range"
ordered_residues="ATGMEYLASQK [FGFR2_Y616_R612T]" category_label="middle range"
ordered_residues="LDPDSYNVFEN [FOXC1_Y159_M161V]" category_label="upper range"
ordered_residues="YNNYGYGSDGF [HNRNPH3_Y161_N163S]" category_label="middle range"
ordered_residues="LADKPYTFEYY [FXN_Y118_D122Y]" category_label="upper range"
ordered_residues="TGEKLYQRKEF [ZNF283_Y627]" category_label="middle range"
ordered_residues="PVKTPYSLKRW [BMPR2_Y979_R974P]" category_label="upper range"
ordered_residues="RIGRKCKKVRF [F8_Y442_Y442C]" category_label="lower range"
ordered_residues="PRDSGYSFETI [MAP1B_Y1921_S1917R_YF]" category_label="upper range"

Turning to the following sequence.
Asked: Bin this entry: FIGRIYLYLTK [GARS1_Y414]
Given back: upper range
